Catalogue of recombinant UMI read abundance (log10) readings, one per entry.
Experimental Protocol: recombinant UMI read abundance after kanamycin selection (control-corrected) (log10(CPM+1)); higher = more efficient recombination; extreme values may be limits of the assay; sequences stand for … in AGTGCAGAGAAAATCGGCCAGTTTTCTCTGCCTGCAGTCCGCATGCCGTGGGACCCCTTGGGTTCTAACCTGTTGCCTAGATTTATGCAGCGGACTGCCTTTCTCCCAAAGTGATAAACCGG…AGGTTGGTTTCACT; site = the 11-nt donor;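 further: IS621 bridge recombinase in Escherichia coli cells against a fixed T5 target plasmid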

// below: answered sequences
Sequence Data	recombinant UMI read abundance (log10)
GGATAGACATGGACCGGTTTTCCCGGTAATCCGTATTTGCA (site GGATAGACTTG)	2.79
CTGGCATCATGGACCGGTTTTCCCGGTAATCCGTATTTGAC (site CTAGTATCTGT)	0

Prompt line: Record request: recombinant UMI read abundance (log10) value, item TGGAAAACATGGACCGGTTTTCCCGGTAATCCGTATTTGCA (site TGGAAAACTTG)
Response line: 2.24

Prompt line: Dear colleague, I am looking for the recorded recombinant UMI read abundance (log10) of the following sequence: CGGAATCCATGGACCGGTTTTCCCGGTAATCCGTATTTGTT (site CGCAATCCTAC)
Response line: 0

Source: the supplement of paper PMC11208160
